molecular target: hSSTR1 (Homo sapiens, UniProt P30872); test: Binding at human SRIF receptor subtype hSSTR1; conditions: read-out: Ki at SSTR 1
Sequence (P30872 whole entry): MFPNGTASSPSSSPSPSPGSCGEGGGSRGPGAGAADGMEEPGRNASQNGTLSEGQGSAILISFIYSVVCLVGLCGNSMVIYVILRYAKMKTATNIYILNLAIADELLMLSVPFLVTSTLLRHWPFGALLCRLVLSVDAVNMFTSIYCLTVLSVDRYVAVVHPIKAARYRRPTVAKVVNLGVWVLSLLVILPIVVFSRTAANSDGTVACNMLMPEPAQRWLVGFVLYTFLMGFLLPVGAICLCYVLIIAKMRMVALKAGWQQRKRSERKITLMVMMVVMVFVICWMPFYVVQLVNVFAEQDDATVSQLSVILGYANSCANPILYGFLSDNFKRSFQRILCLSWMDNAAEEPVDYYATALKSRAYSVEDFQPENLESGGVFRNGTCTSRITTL
METRIC_NAME: pKi
Conceptually, pKi converts a concentration in mol/L into minus its log10.

(Q) Given NCCCCCOC[C@@H]1O[C@H](OCCc2c[nH]c3ccccc23)[C@H](OCc2c[nH]cn2)[C@H](OCc2ccccc2)[C@H]1OCc1ccccc1 , state its recorded pKi.
(A) 6.52

* * *

target: hSSTR4 (Homo sapiens); assay: Binding at human SRIF receptor subtype hSSTR4; conditions: TABLE 3; read-out: hSSTR 4 Ki
Sequence (P31391 whole entry): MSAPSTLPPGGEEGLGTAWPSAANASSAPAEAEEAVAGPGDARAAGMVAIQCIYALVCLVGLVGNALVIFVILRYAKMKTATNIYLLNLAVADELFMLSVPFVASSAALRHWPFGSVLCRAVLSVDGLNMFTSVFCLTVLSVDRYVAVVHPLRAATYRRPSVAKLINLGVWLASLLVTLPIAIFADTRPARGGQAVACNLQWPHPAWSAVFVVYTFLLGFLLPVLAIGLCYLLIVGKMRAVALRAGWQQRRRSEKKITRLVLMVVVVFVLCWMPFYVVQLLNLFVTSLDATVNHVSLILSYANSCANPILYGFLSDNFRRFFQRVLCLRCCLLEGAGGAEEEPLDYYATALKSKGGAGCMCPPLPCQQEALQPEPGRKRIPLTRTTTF
METRIC_NAME: log10 of Ki (log10 of the value in µM)
Record value = log10 of Ki given in µM.

Consider the reported log10 of Ki for these molecules:
[
  {
    "MOLECULE": "NCCCCC(N)NC[C@H]1O[C@@H](OCCc2c[nH]c3ccccc23)[C@H](OCc2ccccc2)[C@@H](OCc2ccccc2)[C@@H]1OCc1ccccc1 (some centres unmarked)",
    "METRIC_NAME": "log10 of Ki",
    "VAL": -0.30
  },
  {
    "MOLECULE": "NCCCCCOC[C@@H]1O[C@H](OCCc2c[nH]c3ccccc23)[C@H](OCc2c[nH]cn2)[C@H](OCc2ccccc2)[C@H]1OCc1ccccc1",
    "METRIC_NAME": "log10 of Ki",
    "VAL": -1.00
  },
  {
    "MOLECULE": "NCCCCCOC[C@@H]1O[C@H](OCCc2c[nH]c3ccccc23)[C@H](OCc2ccccc2)[C@H](OCc2ccccc2)[C@H]1OCc1ccccc1",
    "METRIC_NAME": "log10 of Ki",
    "VAL": 0.28
  },
  {
    "MOLECULE": "NCCCCCOC[C@H]1O[C@@H](OCCc2c[nH]c3ccccc23)[C@H](OCc2ccccc2)[C@@H](OCc2ccccc2)[C@@H]1OCc1ccccc1",
    "METRIC_NAME": "log10 of Ki",
    "VAL": 0.04
  }
]

(Q) Look up log10 of Ki: CO[C@@H]1O[C@H](COCCCCCN)[C@@H](OCc2ccccc2)[C@H](OCc2ccccc2)[C@H]1OCc1ccccc1
(A) 0.30

(Q) Dear colleague, I am looking for the recorded log10 of Ki of the following molecule: NCCCCCOC[C@@H]1O[C@H](OCCc2c[nH]c3ccccc23)[C@@H](OCc2ccccc2)[C@H](OCc2ccccc2)[C@H]1OCc1ccccc1
(A) 0.30

(Q) Field request: log10 of Ki | item: NCCCCCOC[C@H]1O[C@@H](OCCc2c[nH]c3ccccc23)[C@H](OCc2c[nH]cn2)C[C@@H]1OCc1ccccc1
(A) 0.48

(Q) Form field: reported log10 of Ki of NCCCCCOC[C@H]1O[C@@H](OCCc2c[nH]c3ccccc23)[C@H](OCc2ccccc2)C[C@@H]1OCc1ccccc1
(A) 0.23

Values from patent US6197963A
